- protocol: Penetration through rabbit cornea in reaction chambers
- Format: in vitro ADME
- study.conditions: male, Fauve de Bourgogne, 37° C., sampling 0 h, 2 h and 4 h, 0.5 cm^2, read-out: apparent permeability
quantity.name: Papp at 4 h (×10⁻⁶ cm/s)
# unit: ×10⁻⁶ cm/s | format: bare number

Output measured Papp at 4 h for this item: CCn1cc(C(=O)O)c(=O)c2cc(F)c(N3CCNCC3)cc21 11

Data credit: patent US10898542B2
